For each record, write down the corresponding P.E. binding ELISA OD.
- Measurement Target: T1, human IL-2Rβ (human, UniProt P14784 27-240, limits assumed)
- T1 construct: Recombinant protein, coated (ELISA) or immobilised on CM5 (SPR); also called hu IL-2R; interleukin 2 receptor β-chain
- T1 sequence: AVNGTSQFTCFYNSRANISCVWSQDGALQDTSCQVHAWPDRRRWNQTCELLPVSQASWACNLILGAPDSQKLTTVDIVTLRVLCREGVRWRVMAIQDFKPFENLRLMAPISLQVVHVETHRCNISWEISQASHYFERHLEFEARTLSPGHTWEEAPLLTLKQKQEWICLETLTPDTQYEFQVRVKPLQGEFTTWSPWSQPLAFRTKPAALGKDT
- Assay Comment: P.E. binding ELISA on coated protein
Numbers only, in OD450 nm.

FJ1427 P035MP03D01 (VHH, soluble VHH in periplasmic extract; also called clone nr) VHH: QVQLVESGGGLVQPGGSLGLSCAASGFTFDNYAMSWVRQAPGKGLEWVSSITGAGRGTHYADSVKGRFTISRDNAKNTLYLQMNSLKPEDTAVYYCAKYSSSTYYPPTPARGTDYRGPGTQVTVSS: 0.307
FJ1427_P035MP03H01 (VHH, soluble VHH in periplasmic extract; also called clone nr; 200) VHH: QVQLVESGGGSVQTGGSLRLSCVVSGSHFISDVMGWYRQVPGKQRELVADMADGGSAKYADSVKGRFTILRDSVKNTVTLQMSSLNPEDTGVYYCKAGLWITGRHSDYWGQGTQVTVTS: 0.327
FJ1427_P035MP03B02 (VHH, soluble VHH in periplasmic extract; also called clone nr) VHH: EVQLVESGGGLVQVGDSLRLSCAASGRTVGSANMGWFRQAPGKEREFVAVITWSTGSTVYADSVKGRFTISRDNAKNTVYLDMSSLKPDDTAVYYCAADVYPYSGNLNIMDYWGKGTLVTVSS: 0.529
FJ1427_P035MP03A02 (VHH, soluble VHH in periplasmic extract; also called clone nr) VHH: QVQLVESGGGLVQAGGSLRLSCAASGGTFSSYAMGWFRQAPGKEREFVAATTRGGGRTMYAVSTEGRFTCSRDNAENTVYLQMNSLKPEDTAIYYCAAMTSYYSGTYYPDSSDFDIWGQGTQVTVSS: 0.28
FJ1427_P035MP03G09 (VHH, soluble VHH in periplasmic extract; also called clone nr) VHH: QVQLVESGGGLVQAGGSLRLSCVVSGDVFVRYTMAWFRQAPGKEREFVAVVTDSGRTTEYVDSVKGRFTVSRDNAKNTVYLQMNNLKPEDTAVYYCAANTDYFQIRSVDNNAWGQGTQVTVSS: 0.843

State recorded P.E. binding ELISA OD for all listed binders.
1. FJ1427 P035MP03E01 (VHH, soluble VHH in periplasmic extract; also called clone nr) VHH: QVQLVESGGGLVQAGGSLRLSCAASGGTFSSYAMGWFRQAPGKEREFVAATTRGGGRTMYAVSTEGRFTCSRDNAKNTVYLLMNSLKPEDTAVYYCAAMTSYYSGTYYPDSSDFDIWGQGTQVTVSS
2. FJ1427_P035MP03A07 (VHH, soluble VHH in periplasmic extract; also called clone nr) VHH: QVQLVESGGGLVEAGGSLRLSCAASGRAFNNFPMGWFRQAPGKEREFVAAITWISGSTLYADSVKGRFTISRDKSKNTVYLQMSGLKPEDTALYYCAAALKTITRGQHDYTYWGQGTQVTVSS
3. FJ1427_P035MP06B01 (VHH, soluble VHH in periplasmic extract; also called clone nr) VHH: QVQLVESGGGLVQAGGSLRLSCAASGDVFVRYTMAWFRQAPGKEREFVASVTDSGRTTDYVHSVKGRFTVSRDNAKNTVYLQMNNLKPEDTAVYYCAANTDYFQIRSLDANTWGQGTQVTVSS

Output:
1. 0.329
2. 0.307
3. 0.521

Data origin: patent US20240409645A1
